biological target: human TLR8 (Homo sapiens); assay: TLR8 inhibition reporter assay (HEK-Blue SEAP); conditions: HEK-Blue cells overexpressing human TLR8, stimulated with R848 15.9 μM, 22 hour incubation
Sequence (Q9NR97 27-1041): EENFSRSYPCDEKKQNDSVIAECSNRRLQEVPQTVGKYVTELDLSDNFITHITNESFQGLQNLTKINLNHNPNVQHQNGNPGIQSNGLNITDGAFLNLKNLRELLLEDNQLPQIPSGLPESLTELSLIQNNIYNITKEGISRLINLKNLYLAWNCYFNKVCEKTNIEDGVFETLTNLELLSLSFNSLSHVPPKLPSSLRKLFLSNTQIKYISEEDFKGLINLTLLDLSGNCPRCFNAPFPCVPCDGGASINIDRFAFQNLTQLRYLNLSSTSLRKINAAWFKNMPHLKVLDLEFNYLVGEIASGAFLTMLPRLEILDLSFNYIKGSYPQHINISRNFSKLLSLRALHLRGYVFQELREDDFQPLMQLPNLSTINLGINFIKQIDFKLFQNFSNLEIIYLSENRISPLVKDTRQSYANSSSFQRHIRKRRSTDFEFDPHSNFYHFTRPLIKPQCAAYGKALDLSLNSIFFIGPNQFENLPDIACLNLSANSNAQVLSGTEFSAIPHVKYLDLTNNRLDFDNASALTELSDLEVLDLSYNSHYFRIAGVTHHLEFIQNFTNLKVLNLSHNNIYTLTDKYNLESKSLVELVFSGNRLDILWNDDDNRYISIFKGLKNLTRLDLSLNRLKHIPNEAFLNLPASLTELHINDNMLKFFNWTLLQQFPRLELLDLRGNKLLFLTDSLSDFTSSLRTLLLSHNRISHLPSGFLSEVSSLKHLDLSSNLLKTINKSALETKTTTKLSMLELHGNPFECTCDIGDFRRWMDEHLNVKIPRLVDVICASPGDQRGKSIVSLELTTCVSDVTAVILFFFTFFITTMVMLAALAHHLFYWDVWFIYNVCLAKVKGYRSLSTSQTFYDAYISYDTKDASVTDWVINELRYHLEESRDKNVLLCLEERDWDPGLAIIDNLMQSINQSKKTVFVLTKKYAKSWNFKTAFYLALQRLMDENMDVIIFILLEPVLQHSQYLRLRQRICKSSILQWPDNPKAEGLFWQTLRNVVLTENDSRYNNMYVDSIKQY
Item-by-item account of pIC50
The value called pIC50 is obtained by taking minus log10 of the concentration in mol/L.

The cases that follow already have their pIC50 on record.
molecule	pIC50
Cc1cc2c(C3CCCNC3)n[nH]c2cc1-c1cc(C)c2ncnn2c1 (stereo not drawn)	8.96
Cc1cc2c(C3CCNC3)n[nH]c2cc1-c1cc(C)c2ncnn2c1 (stereo not drawn)	8.82

Entry CCc1cc2c(C3CCN(C(=O)CCCN(C)C)CC3)n[nH]c2cc1-c1cc(C)c2ncnn2c1 has what pIC50? 8.77

###

Target: human TLR9 (Homo sapiens, UniProt Q9NR96)
Sequence (Q9NR96 26-1032): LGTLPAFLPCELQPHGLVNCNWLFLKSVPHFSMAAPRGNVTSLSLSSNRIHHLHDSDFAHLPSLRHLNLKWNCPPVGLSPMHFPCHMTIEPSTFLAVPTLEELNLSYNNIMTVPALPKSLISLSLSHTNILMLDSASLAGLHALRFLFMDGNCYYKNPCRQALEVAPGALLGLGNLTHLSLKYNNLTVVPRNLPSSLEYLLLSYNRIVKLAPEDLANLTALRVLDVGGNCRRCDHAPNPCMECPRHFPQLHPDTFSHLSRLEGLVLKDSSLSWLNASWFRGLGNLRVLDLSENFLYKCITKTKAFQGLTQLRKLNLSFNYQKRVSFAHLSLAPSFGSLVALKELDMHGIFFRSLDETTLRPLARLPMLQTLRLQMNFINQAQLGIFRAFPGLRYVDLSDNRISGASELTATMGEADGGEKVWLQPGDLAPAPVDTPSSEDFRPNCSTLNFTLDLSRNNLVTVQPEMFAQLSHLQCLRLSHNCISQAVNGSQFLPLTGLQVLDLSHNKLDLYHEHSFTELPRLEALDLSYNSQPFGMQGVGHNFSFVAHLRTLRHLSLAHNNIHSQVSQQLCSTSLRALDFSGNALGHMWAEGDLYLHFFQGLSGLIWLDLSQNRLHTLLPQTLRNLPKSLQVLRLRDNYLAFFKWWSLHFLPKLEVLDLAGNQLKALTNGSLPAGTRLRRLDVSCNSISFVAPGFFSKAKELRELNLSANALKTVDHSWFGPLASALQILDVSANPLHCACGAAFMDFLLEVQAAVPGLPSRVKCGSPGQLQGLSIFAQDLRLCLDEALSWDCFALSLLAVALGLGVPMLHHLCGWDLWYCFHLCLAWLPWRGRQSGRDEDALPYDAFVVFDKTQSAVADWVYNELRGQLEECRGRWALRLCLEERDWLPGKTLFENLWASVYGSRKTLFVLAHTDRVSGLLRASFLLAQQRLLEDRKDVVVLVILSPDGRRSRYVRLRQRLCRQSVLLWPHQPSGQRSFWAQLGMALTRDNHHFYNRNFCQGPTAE
Assay: TLR9 inhibition reporter assay (HEK-Blue SEAP)
Details: HEK-Blue cells overexpressing human TLR9, stimulated with ODN2006 5 nM, 22 hour incubation
experimental readout: pIC50
The value called pIC50 is obtained by taking minus log10 of the concentration in mol/L.

The cases that follow already have their pIC50 on record.
compound	pIC50
Cc1cc2c(C3CCNC3)n[nH]c2cc1-c1cc(C)c2ncnn2c1 (stereo not drawn)	5.88
Cc1cc2c(C3CCC(NCCS(C)(=O)=O)CC3)n[nH]c2cc1-c1cc(C)c2ncnn2c1 (stereo not drawn) [Example 30]	5.17

Note: attention shifts to another entry.
Entry Cc1cc2c(C3CCN(CC(N)=O)CC3)n[nH]c2cc1-c1cc(C)c2ncnn2c1 has what pIC50? 5.21

###

biological target: human TLR7 (Homo sapiens); test: TLR7 inhibition reporter assay (HEK-Blue SEAP); details: HEK-Blue cells overexpressing human TLR7, stimulated with gardiquimod 7.5 μM, 22 hour incubation
Item-by-item account of IC50

molecule	IC50
Cc1cc(-c2cc3[nH]nc(C4CCC(N(C)C)CC4)c3cc2C(C)C)cn2ncnc12 (stereo not shown) [Example 114]	0.2 nM
Cc1cc2c(C3CCC(N(C)C)CC3)n[nH]c2cc1-c1cc(C)c2ncnn2c1 (single isomer, unassigned) [Example 4]	19.9 nM
CCc1cc2c(C3CCN(C(=O)CCN(C)C)CC3)n[nH]c2cc1-c1cc(C)c2ncnn2c1	11 nM

Note: attention shifts to another entry.
Entry Cc1cc(-c2ccc3c(C4CCC(N(C)C)CC4)c[nH]c3c2)cn2ncnc12 (single isomer, unassigned) [Example 15] has what IC50? 29.4 nM

###

molecular target: human TLR9 (Homo sapiens, UniProt Q9NR96); assay: TLR9 inhibition reporter assay (HEK-Blue SEAP); settings: HEK-Blue cells overexpressing human TLR9, stimulated with ODN2006 5 nM, 22 hour incubation
pIC50: −log10 of the molar value.
Label Criterion not met if pIC50 falls below 5; label Criterion met in every other case.

compound	class name
COc1cc(-c2cc3[nH]nc(C4CCCNC4)c3cc2C)cn2ncnc12 (stereo not drawn)	Criterion not met
CCc1cc2c(C3CCC(NC4CC4)CC3)n[nH]c2cc1-c1cc(C)c2ncnn2c1 (single isomer, unassigned) [Example 97]	Criterion met
Cc1cc2c(C3CCC(N(C)C4COC4)CC3)n[nH]c2cc1-c1cc(C)c2ncnn2c1 (single isomer, unassigned) [Example 32]	Criterion met

Field: next compound
Does Cc1cc(-c2cc3[nH]nc(C4CCC(N5CC(C)(C)C5)CC4)c3cc2C(C)C)cn2ncnc12 (single isomer, unassigned) [Example 136] have a reported pIC50 of at least 5? Criterion met

###

target: human TLR9 (Homo sapiens); assay: TLR9 inhibition reporter assay (HEK-Blue SEAP); conditions: HEK-Blue cells overexpressing human TLR9, stimulated with ODN2006 5 nM, 22 hour incubation
Item-by-item account of pIC50
The value called pIC50 is obtained by taking minus log10 of the concentration in mol/L.

compound	pIC50
Cc1cc(-c2cc(C)c3ncnn3c2)cc2[nH]nc(C3CCN(C4CCOCC4)CC3)c12 [Example 78]	4.61
Cc1cc(-c2ccc3c(C4CCC(N(C)C)CC4)c[nH]c3c2)cn2ncnc12 (single isomer, unassigned) [Example 14]	5.46
Cc1cc2c(C3CCN(CC#N)CC3)n[nH]c2cc1-c1cc(C)c2ncnn2c1 [Example 71]	5.86
Cc1cc2c(C3CCN(C4CCOCC4)CC3)n[nH]c2cc1-c1cc(C)c2ncnn2c1 [Example 21]	5.34
Cc1cc(-c2cc3[nH]nc(C4CCC(N5CCC6(COC6)C5)CC4)c3cc2C(C)C)cn2ncnc12 (single isomer, unassigned) [Example 160]	5.14
CNC1CCC(c2n[nH]c3cc(-c4cc(C)c5ncnn5c4)c(C)cc23)CC1 (stereo not shown) [Example 44]	5.26
Cc1cc2c(C3CCCN(C(=O)CN(C)C)C3)n[nH]c2cc1-c1cc(C)c2ncnn2c1 (stereo not shown) [Example 56]	5.31
Cc1cc(-c2cc3[nH]nc(C4CCC(N5CCC5)CC4)c3cc2C(C)C)cn2ncnc12 (single isomer, unassigned) [Example 139]	5.20

Entry CCc1cc2c(C3CCN(CC(C)(C)O)CC3)n[nH]c2cc1-c1cc(C)c2ncnn2c1 [Example 101] has what pIC50? 4.92

Also COc1cc(-c2cc3[nH]nc(C4CCC(N5CC(OC)C5)CC4)c3cc2C(C)C)cn2ncnc12 (single isomer, unassigned) [Example 148] ? 5.19

Also Cc1cc(-c2cc(C)c3ncnn3c2)cc2[nH]nc(C3CCN(CC(C)(C)O)CC3)c12 [Example 77] ? 5.66

Also Cc1cc2c(C3CCC(NCC(=O)N(C)C)CC3)n[nH]c2cc1-c1cc(C)c2ncnn2c1 (single isomer, unassigned) [Example 29] ? 5.20

Also Cc1cc(-c2cc(C)c3ncnn3c2)cc2[nH]nc(C3CCCN(C4CCOCC4)C3)c12 (stereo not shown) [Example 60] ? 5.37

Also Cc1cc(-c2cc3[nH]nc(C4CCC(N5CC6(COC6)C5)CC4)c3cc2C(C)C)cn2ncnc12 (single isomer, unassigned) [Example 128] ? 5.02

Also COc1cc(-c2ccc3c(C4CCNCC4)c[nH]c3c2)cn2ncnc12 [Example 11] ? 6.44

###

Target: human TLR7 (Homo sapiens, UniProt Q9NYK1)
Construct: host or cells: HEK-Blue cells
Sequence (Q9NYK1 27-1049): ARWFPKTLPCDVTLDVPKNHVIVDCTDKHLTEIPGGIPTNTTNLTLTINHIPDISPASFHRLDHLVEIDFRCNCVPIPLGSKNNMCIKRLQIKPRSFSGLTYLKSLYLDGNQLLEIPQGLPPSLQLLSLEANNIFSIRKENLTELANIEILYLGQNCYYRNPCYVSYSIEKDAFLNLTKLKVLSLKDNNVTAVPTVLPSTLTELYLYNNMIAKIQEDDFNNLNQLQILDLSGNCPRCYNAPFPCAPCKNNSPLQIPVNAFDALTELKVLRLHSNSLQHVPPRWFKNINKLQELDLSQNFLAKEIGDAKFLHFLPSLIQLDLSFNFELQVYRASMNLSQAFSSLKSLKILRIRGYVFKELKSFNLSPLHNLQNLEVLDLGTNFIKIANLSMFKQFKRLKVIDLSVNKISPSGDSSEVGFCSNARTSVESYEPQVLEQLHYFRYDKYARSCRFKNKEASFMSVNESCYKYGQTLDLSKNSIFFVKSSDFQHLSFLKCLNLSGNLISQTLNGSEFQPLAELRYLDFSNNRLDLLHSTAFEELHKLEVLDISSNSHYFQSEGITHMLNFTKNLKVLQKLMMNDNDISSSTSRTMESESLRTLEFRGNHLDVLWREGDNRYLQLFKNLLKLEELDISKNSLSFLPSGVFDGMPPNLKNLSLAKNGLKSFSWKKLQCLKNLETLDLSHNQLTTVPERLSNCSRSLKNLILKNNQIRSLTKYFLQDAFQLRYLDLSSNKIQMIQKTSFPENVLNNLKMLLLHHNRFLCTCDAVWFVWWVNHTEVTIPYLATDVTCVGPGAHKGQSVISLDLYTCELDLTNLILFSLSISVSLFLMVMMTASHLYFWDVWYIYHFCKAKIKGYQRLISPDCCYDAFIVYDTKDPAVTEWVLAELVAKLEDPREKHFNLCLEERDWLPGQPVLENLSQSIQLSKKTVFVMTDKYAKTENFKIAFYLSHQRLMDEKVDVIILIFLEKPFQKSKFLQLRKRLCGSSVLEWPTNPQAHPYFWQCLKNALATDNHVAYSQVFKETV
Test: TLR7 inhibition reporter assay (HEK-Blue SEAP)
Type: cell-based
Conditions: HEK-Blue cells overexpressing human TLR7, stimulated with gardiquimod 7.5 μM, 22 hour incubation
Item-by-item account of pIC50
The value called pIC50 is obtained by taking minus log10 of the concentration in mol/L.

1) Cc1cc(-c2ccc3c(C4CCNCC4)c[nH]c3c2)cn2ncnc12 7.77
2) Cc1cc2c(C3CCN(CC#N)CC3)n[nH]c2cc1-c1cc(C)c2ncnn2c1 8.01
3) Cc1cc(-c2cc(C)c3ncnn3c2)cc2[nH]nc(OC3CCN(Cc4cn(C)nn4)CC3)c12 7.88
4) Cc1cc(-c2cc(C)c3ncnn3c2)cc2[nH]nc(C3CCN(C(=O)CN(C)C)CC3)c12 8.14

Note: attention shifts to another entry.
Kindly state the measured pIC50 obtained for CCc1cc2c(C3CCN(C(=O)CN(C)C)CC3)n[nH]c2cc1-c1cc(C)c2ncnn2c1 with human TLR7 (Homo sapiens, UniProt Q9NYK1). 8.20
